B1: CPEB3 Ribozyme (parent)
chain: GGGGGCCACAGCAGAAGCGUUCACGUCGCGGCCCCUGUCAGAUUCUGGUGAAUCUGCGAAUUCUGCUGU

# Variants of: B1
# test_summary: self-cleavage, relative activity (ratio to wild type); higher = more cleavage; co-transcriptional
Kindly state self-cleavage for each of the entries shown.
Could you keep your reply to the number by itself?

stdin: So what does the record say about self-cleavage for C39U U62G ?
stdout: 0.622

stdin: What about C6A G37A ?
stdout: 0.149

stdin: What about A15C U55C ?
stdout: 0.545

stdin: What about G48A U67A ?
stdout: 1.01

stdin: What about A8C U46A ?
stdout: 0.981

stdin: What about G31A U64G ?
stdout: 0.728

stdin: What about A60U C63A ?
stdout: 0.391

stdin: What about A40U U49C ?
stdout: 0.757

stdin: What about G2A G28U ?
stdout: 0.0733

stdin: What about C34U C57U ?
stdout: 0.385

stdin: What about C22U G47C ?
stdout: 0.389

stdin: What about G11A C32G ?
stdout: 0.293

stdin: What about U20C C35G ?
stdout: 0.129

stdin: What about G2C C45G ?
stdout: 0.0374

stdin: What about G2C C29G ?
stdout: 0.0119

stdin: What about A10U U53G ?
stdout: 0.902

stdin: What about U20G G58U ?
stdout: 0.213

stdin: What about U21C C27U ?
stdout: 0.138

stdin: What about G11U U36G ?
stdout: 0.167

stdin: What about A15G G31A ?
stdout: 0.874

stdin: What about C32U G65A ?
stdout: 0.988

stdin: What about C24G G31A ?
stdout: 0.185
